Taken from patent US20030091584A1.

target: Bac-F; assay: BIAcore, mAb vs Bac-F (1:1)
MEASURED_ENDPOINT: Kd (nM)
Give a bare numeral; the unit nM is implied.

[ask] What does the data say about its Kd? Entry: A1e9 (monoclonal antibody) (antibody, V domains shown) VH: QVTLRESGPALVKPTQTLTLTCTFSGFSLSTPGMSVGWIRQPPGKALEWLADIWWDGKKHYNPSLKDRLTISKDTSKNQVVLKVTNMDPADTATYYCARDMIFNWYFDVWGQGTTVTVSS VL: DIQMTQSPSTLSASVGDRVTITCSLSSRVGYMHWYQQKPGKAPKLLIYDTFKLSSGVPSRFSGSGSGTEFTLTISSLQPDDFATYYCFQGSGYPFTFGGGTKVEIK
[reply] 0.33
